# System: full length recombinant Pim-2 (Homo sapiens (Human))
# Sequence (Q9P1W9 whole entry): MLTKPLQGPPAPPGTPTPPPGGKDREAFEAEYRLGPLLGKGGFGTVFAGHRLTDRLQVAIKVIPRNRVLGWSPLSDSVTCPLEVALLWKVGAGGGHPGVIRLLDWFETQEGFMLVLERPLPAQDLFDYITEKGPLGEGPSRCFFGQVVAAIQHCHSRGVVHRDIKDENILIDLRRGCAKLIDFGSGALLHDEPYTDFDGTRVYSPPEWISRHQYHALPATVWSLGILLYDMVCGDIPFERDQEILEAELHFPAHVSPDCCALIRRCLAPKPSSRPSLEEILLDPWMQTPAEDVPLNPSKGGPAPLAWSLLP
# Assay Info: Pim enzyme assay (HTRF, phosphorylation of biotinylated-BAD (S112) peptide), Pim-2
# Assay type: biochemical
# Test Context: Pim-2 enzyme assay; read-out: Pim2_IC50
Simple rule here: IC50 less than 90 nM is 1 (yes), otherwise 0 (no).

• c1ccc(-c2nnc(-c3ccc4[nH]cc(-c5cncc(C6CC6)n5)c4c3)o2)cc1 [Example 254] = 0 (no)
• CC1(C)CNc2ncc(-c3c[nH]c4ccc(-c5nnc(N)s5)cc34)nc21 [Example 201] = 1 (yes)
• CNc1nnc(-c2ccc3[nH]cc(-c4cccc(-n5cnc(C)c5)n4)c3c2)s1 [Example 228] = 1 (yes)
• CC(C)Nc1cncc(-c2c[nH]c3ccc(-c4nsc(N)n4)cc23)n1 [Example 66] = 0 (no)

Input: Is it true that IC50 reported for Nc1nnc(-c2ccc3[nH]cc(-c4cncc(NC5CC5)n4)c3c2)s1 [Example 15] is less than 90 nM?
Output: 1 (yes)

Data provenance is patent US9321756B2.
